Biological target: T1, RAVV GP on rVSV pseudotype (VSV-MARV RAVV GP) (Ravn virus, UniProt Q1PDC7 19-681)
T1 sequence: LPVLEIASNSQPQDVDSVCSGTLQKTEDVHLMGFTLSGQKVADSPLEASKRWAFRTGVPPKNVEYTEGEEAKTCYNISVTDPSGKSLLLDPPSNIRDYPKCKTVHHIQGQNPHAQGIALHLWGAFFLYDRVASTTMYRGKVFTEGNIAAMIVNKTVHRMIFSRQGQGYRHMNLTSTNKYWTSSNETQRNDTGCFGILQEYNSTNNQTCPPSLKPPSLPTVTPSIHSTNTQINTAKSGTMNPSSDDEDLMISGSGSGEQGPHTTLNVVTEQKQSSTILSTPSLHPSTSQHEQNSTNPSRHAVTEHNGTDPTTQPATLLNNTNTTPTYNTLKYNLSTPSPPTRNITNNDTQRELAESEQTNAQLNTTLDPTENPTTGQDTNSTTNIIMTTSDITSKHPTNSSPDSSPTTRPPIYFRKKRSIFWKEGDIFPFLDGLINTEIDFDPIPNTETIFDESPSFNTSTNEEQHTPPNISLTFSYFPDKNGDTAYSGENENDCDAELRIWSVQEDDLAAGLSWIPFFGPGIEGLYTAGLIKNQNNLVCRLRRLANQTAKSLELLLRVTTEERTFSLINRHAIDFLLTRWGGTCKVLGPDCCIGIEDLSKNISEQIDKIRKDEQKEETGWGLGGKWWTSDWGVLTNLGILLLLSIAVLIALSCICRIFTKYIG
Assay: cell-based or functional assay
So I've got a bunch of binders here, and I need their NT50 values.
Report only the number, with the unit µg/mL understood.

Looking for the measured NT50 of R29 (antibody, V domains shown) VH: EVQLVESGAGLVQPGGSLRLSCIASGFTFSNSWMTWVRQAPGRGLEWIARIKRKADGETADYAASVKGRFTISRDDSKNTLYLQMNSLKTEDTAVYYCTTYNWNFNFDYWGQGVLVTVSS VL: DIQMTQSPSSLSASVGDRVTITCRASQDISPYLNWYQQKPGKAPKLLIYYGNRLESGVPSRFSGSGSGTDLTLTISSLQPEDFATYYCQQYYRLPLTFGGGTKVEIK , can you help?
0.03

Now try R80 (antibody, V domains shown) VH: EVQLVESGGGLAKPGGSLRLSCAASGFTFNDYWLFWVRQAPGRGLEWISTINRPGSSTFYADSVKGRFTISRENANNALYLQMDSLRPEDTAVYYCARDQGRTVGYLDYWGQGVLVTVSS VL: QSALTQPRSVSGSPGQSVTISCTGTSSDIGSYSYVSWYQQHPGTAPKLIIYDDSERPSGVSDRFSGSKSGNTASLTISGLQAEDEADYYCSSYAGSNTWVFGGGTRLTVL .
0.3

Here is the next binder: R15 (antibody, V domains shown) VH: EVQLVESGAGLVRPGGSLRLSCAASGFTFSNTWMTWVRQAPGRGLEWLARIKRKADGETADYAASVKGRFTISRDDSKHTLFLQMNSLKTEDTAVYYCTTYNWNFNFDNWGQGVLVTVSS VL: DIQMTQSPSSLSASVGDRVTITCRASQAFSSYLNWYQQKPGKAPKLLIYYANRLESGVPSRFSGSESGTEFTLTISSLQPEDFATYYCQQYYRLPLTFGGGTKVEIK
0.08
